// reported solubility kinetic per item
- Protocol description: Solubility in pH 7.0 buffer by nephelometry
- Type: physicochemical

| Structure smiles | Endpoint value |
| --- | --- |
| N[C@@H](CC(=O)NC1(c2nc3ccc(OCC(=O)NCCS(=O)(=O)O)cc3s2)CCS(=O)(=O)CC1)Cc1cc(F)c(F)cc1F.O=C(O)C(F)(F)F | > 50 µM |
| N[C@@H](CC(=O)NC1(c2nc3ccc(OCC(=O)NC[C@H](O)[C@@H](O)[C@@H](O)[C@H](O)CO)cc3s2)CCS(=O)(=O)CC1)Cc1cc(F)c(F)cc1F.O=C(O)C(F)(F)F | > 50 µM |
| N[C@@H](CC(=O)NC1(c2nc3ccc(OCCCCCC(=O)NC[C@H](O)[C@@H](O)[C@@H](O)[C@H](O)CO)cc3s2)CCS(=O)(=O)CC1)Cc1cc(F)c(F)cc1F.O=C(O)C(F)(F)F | 20 to 50 µM |

Form: compound = `C[N+](C)(C)CCNC(=O)COc1ccc2nc(C3(NC(=O)C[C@H](N)Cc4cc(F)c(F)cc4F)CCS(=O)(=O)CC3)sc2c1.O=C(O)C(F)(F)F.O=C([O-])C(F)(F)F` ; solubility kinetic = > 50 µM

// solubility kinetic lookup, compound = `N[C@@H](CC(=O)NC1(c2nc3ccc(OCCCCCC(=O)NCCS(=O)(=O)O)cc3s2)CCS(=O)(=O)CC1)Cc1cc(F)c(F)cc1F.O=C(O)C(F)(F)F` , result: > 50 µM

Looking up `C[N+](C)(C)CCNC(=O)CCCCCOc1ccc2nc(C3(NC(=O)C[C@H](N)Cc4cc(F)c(F)cc4F)CCS(=O)(=O)CC3)sc2c1.O=C(O)C(F)(F)F.O=C([O-])C(F)(F)F` , I found its solubility kinetic recorded as > 50 µM
